- Assay system: C3a anaphylatoxin chemotactic receptor (Homo sapiens)
- Sequence (Q16581 whole entry): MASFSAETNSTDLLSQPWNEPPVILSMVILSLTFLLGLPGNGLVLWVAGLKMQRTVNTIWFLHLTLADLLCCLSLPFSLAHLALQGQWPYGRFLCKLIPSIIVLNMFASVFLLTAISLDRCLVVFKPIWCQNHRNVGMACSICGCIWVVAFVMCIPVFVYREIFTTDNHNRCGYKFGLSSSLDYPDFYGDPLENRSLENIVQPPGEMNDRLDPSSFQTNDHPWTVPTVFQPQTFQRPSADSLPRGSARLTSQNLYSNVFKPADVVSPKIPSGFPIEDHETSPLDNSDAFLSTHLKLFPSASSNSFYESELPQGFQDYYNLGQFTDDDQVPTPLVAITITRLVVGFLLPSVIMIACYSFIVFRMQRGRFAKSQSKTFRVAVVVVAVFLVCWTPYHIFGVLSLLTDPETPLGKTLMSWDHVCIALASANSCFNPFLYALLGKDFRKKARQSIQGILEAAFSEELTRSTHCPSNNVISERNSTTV
- Procedure summary: Displacement of [125I]C3a from human C3a receptor expressed in HMC1 cells co-expressing aequorin
- Type: cell-based
Measured metric: IC50 (µM)

{"Molecule": "O=C(NC1CCN(C(=O)CCc2cccnc2)CC1)C(c1ccccc1)C1CCCCC1 (single isomer, unassigned; epimer A)", "Measured metric": "IC50", "Measurement": 5.01}
{"Molecule": "O=C(NC1CCN(C(=O)CCc2cccnc2)CC1)C(c1ccsc1)C1CCCCC1 (centres undefined)", "Measured metric": "IC50", "Measurement": 0.2}
{"Molecule": "O=C(NC1CCN(C(=O)CCc2cccnc2)CC1)C(c1ccc2ccccc2c1)C1CCCCC1 (centres undefined)", "Measured metric": "IC50", "Measurement": 0.794}
{"Molecule": "O=C(NC1CCN(C(=O)CCc2cccnc2)CC1)C(c1ccccc1)C1CCCCC1 (single isomer, unassigned; epimer B)", "Measured metric": "IC50", "Measurement": 0.316}

Cited source: ChEMBL document CHEMBL1148022
